tested on: MAP2K2; assay: Kinobeads competition binding: MAP2K2; parameters: species or system human; settings: target MAP2K2
endpoint_name: CATDS
API doc: respond with a numeric literal and nothing else, no unit.

compound	CATDS
Nc1ncnc2[nH]c(-c3ccccc3)nc12 [AH5015_KCGS]	0
N#CC1(c2ccc(NC(=O)c3cccnc3NCc3ccncc3)cc2)CCCC1 [Apatinib]	0
CCc1cc2c(cc1N1CCC(N3CCOCC3)CC1)C(C)(C)c1[nH]c3cc(C#N)ccc3c1C2=O [Alectinib]	0

// next entry
Jot down CATDS (MAP2K2) of CCN1CCN(Cc2ccc(Nc3ncc(F)c(-c4cc(F)c5nc(C)n(C(C)C)c5c4)n3)nc2)CC1 [Abemaciclib] .
0
